- SYSTEM_UNDER_TEST: PD-1/PD-L1 (Homo sapiens (Human))
- PROTOCOL: PD-1/PD-L1 biochemical protein-protein interaction assay (ALPHA)
- EXPERIMENTAL_SETUP: 0.3 nM His tagged PD-L1, 2.5 nM biotinylated Fc-PD-1, 60 minutes at 25° C., read-out: IC50 PD-L1-PD1
Listing: IC50 of selected molecules
State just the number; it will be interpreted in pM.

COc1nc(-c2cccc(-c3cccc(-c4cnc(CN5CC6(C5)CN(C(C)=O)C6)c(OC)n4)c3Cl)c2Cl)cnc1CN1CC2(C1)CN(C(C)=O)C2 [compound 209]
175
COc1nc(-c2cccc(-c3cccc(-c4cnc(CN5CCC6(C5)NC(=O)NC6=O)c(OC)n4)c3Cl)c2Cl)cnc1CNC[C@@H]1CCC(=O)N1 (stereo partly drawn) [compound 292]
229

Exercise: Specify reported IC50 for the molecule shown: CNC(=O)C1CCN(Cc2ncc(-c3cccc(-c4cccc(-c5cnc(CC6CCN(C(=O)NC)C6)c(OC)n5)c4Cl)c3Cl)nc2OC)C1 (stereo not drawn) [compound 468]
Key: 123

Exercise: Answer with the recorded IC50 for the molecule listed here: COc1nc(-c2cccc(-c3cccc(-c4cnc(C5=NC[C@@H](CO)N5)c(OC)n4)c3Cl)c2Cl)cnc1C1=NC[C@@H](CO)N1 [compound 134]
Key: 64

Exercise: In one line, give reported IC50 of the entry COc1nc(-c2cccc(-c3cccc(-c4cnc(CNC[C@@H]5CCC(=O)N5)c(OC)n4)c3Cl)c2Cl)ccc1CNC1CCOCC1 [compound 162] .
Key: 116

Exercise: For the molecule COc1nc(-c2cccc(-c3cccc(-c4cnc(CNC5CCN(C)C(=O)C5)c(OC)n4)c3Cl)c2Cl)cnc1CNC[C@@H]1CCC(=O)N1 (stereo partly drawn) [compound 416] , give its reported IC50.
Key: 140

Exercise: For the molecule COc1cc(-c2cccc(-c3cccc(-c4cnc(CN5CC6(CCC(=O)N6)C5)c(OC)n4)c3Cl)c2Cl)ccc1CN1CC2(CCC(=O)N2)C1 [compound 124] , give its reported IC50.
Key: 190

---

- SYSTEM_UNDER_TEST: PD-1/PD-L1 (Homo sapiens (Human), UniProt Q9NZQ7)
- Sequence (Q9NZQ7 19-238): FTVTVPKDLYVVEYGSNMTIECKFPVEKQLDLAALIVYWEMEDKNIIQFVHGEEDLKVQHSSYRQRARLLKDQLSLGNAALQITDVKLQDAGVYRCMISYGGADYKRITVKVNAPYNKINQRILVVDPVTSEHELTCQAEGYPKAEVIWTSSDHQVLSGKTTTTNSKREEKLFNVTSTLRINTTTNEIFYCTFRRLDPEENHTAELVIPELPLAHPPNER
- PROTOCOL: PD-1/PD-L1 biochemical protein-protein interaction assay (ALPHA)
- EXPERIMENTAL_SETUP: 0.3 nM His tagged PD-L1, 2.5 nM biotinylated Fc-PD-1, 60 minutes at 25° C., read-out: IC50 PD-L1-PD1
Entries whose IC50 is below 0.2 nM take Fulfilled; entries at or above 0.2 nM take Not fulfilled.

COc1nc(-c2cccc(-c3cccc(-c4cnc(CN5CCC(C(=O)N(C)C)C5)c(OC)n4)c3Cl)c2Cl)cnc1CN1CCC(C(=O)N(C)C)C1 (stereo not drawn)
Not fulfilled
COc1nc(-c2cccc(-c3cccc(-c4cnc(CN[C@H]5CCOC[C@@H]5O)c(OC)n4)c3Cl)c2Cl)cnc1CNC[C@@H]1CCC(=O)N1
Fulfilled
COc1nc(-c2cccc(-c3cccc(-c4cnc(C5=NCC(F)(F)CN5)c(OC)n4)c3Cl)c2Cl)cnc1C1=NCC(F)(F)CN1
Fulfilled
COc1nc(-c2cccc(-c3cccc(-c4ccc5c(CNC[C@@H]6CCC(=O)N6)cn(C)c5n4)c3Cl)c2Cl)cnc1CNC[C@@H]1CCC(=O)N1
Not fulfilled
COc1nc(-c2cccc(-c3cccc(-c4cnc5c(CN6CC7(CNC(=O)C7)C6)cn(C)c5n4)c3Cl)c2Cl)cnc1CN1CC2(CNC(=O)C2)C1
Fulfilled

Exercise: Please state whether IC50 is below 0.2 nM for `COc1nc(-c2cccc(-c3cccc(-c4cnc(CNC[C@@H]5CCC(=O)N5)c(OC)n4)c3Cl)c2F)ccc1CNC[C@@H]1CCC(=O)N1`
Key: Fulfilled

Exercise: Determine if `COc1nc(-c2cccc(-c3cccc(-c4cnc(CN[C@@](C)(CO)C(=O)O)c(OC)n4)c3Cl)c2Cl)cnc1CNC[C@@H]1CCC(=O)N1` shows IC50 strictly lower than 0.2 nM.
Key: Fulfilled

Exercise: Decide: IC50 of COc1nc(-c2cccc(-c3cccc(-c4cnc(CNC[C@H]5CCC[C@@H]5O)c(OC)n4)c3Cl)c2Cl)cnc1CNC[C@@H]1CCC(=O)N1 [compound 186] strictly below 0.2 nM?
Key: Fulfilled

Exercise: Determine if `COc1nc(-c2cccc(-c3cccc(-c4cnc(CN5C[C@@H](OC)C[C@H]5CO)c(OC)n4)c3Cl)c2Cl)cnc1CNC[C@@H]1CCC(=O)N1` shows IC50 strictly lower than 0.2 nM.
Key: Not fulfilled

Exercise: A record lists COc1nc(-c2cccc(-c3cccc(-c4cnc(CNCC5(C)COC(=O)N5)c(OC)n4)c3Cl)c2Cl)cnc1CNC[C@@H]1CCC(=O)N1 (stereo partly drawn) . Is its IC50 below 0.2 nM?
Key: Not fulfilled

Exercise: Problem: For the compound `COc1nc(-c2cccc(-c3cccc(-c4cnc(CN5CC6(CNC(=O)C6)C5)c(OC)n4)c3Cl)c2Cl)cnc1CNC[C@@H]1CCC(=O)N1` , is IC50 under 0.2 nM?
Key: Fulfilled

Exercise: A record lists `COc1nc(-c2cccc(-c3cccc(-c4cnc(CNC[C@@H]5CCC(=O)N5)c(OC)n4)c3Cl)c2Cl)cnc1CNCc1ccn(C)n1` . Is its IC50 below 0.2 nM?
Key: Fulfilled
